Entries and their diameter of the inhibition zone (DIZ)
# Tested on: Staphylococcus aureus
# assay.comment: Antibacterial activity against Staphylococcus aureus DSM 1104 assessed as diamater of growth inhibition zone after 24 hr by agar cup diffusion method; note: test concentration or dose not given here
# Format: functional
The answer is to be given in mm; state only the numeric part.

[
  {
    "smiles.structure": "COc1ccc(OC)c(/C=N/N=c2\\scc(C3=CC(=O)C=CC3=O)n2-c2ccccc2)c1",
    "result.value": 14
  },
  {
    "smiles.structure": "COc1ccc(/C=N/N=c2\\scc(C3=CC(=O)C=CC3=O)n2-c2ccc(C)cc2)cc1O",
    "result.value": 15
  },
  {
    "smiles.structure": "COc1ccc(/C=N/N=c2\\scc(-c3cc(O)ccc3O)n2-c2ccccc2)cc1",
    "result.value": 14
  },
  {
    "smiles.structure": "COc1ccc(OC)c(/C=N/N=c2\\scc(C3=CC(=O)C=CC3=O)n2-c2ccc(Cl)cc2)c1",
    "result.value": 14
  },
  {
    "smiles.structure": "COc1ccc(/C=N/N=c2\\scc(C3=CC(=O)C=CC3=O)n2-c2ccccc2)cc1",
    "result.value": 15
  },
  {
    "smiles.structure": "COc1cc(/C=N/N=c2\\scc(C3=CC(=O)C=CC3=O)n2-c2ccccc2)ccc1O",
    "result.value": 15
  }
]

Request: State recorded diameter of the inhibition zone (DIZ) with Staphylococcus aureus, entry `COc1ccc(/C=N/N=c2\scc(C3=CC(=O)C=CC3=O)n2-c2ccc(Cl)cc2)cc1O` , no comment.
Result: 13

Request: Please respond with reported diameter of the inhibition zone (DIZ) (system Staphylococcus aureus) for `COc1cc(/C=N/N=c2\scc(-c3cc(O)ccc3O)n2-c2ccccc2)ccc1O` .
Result: 15

Request: Quote diameter of the inhibition zone (DIZ) with test system Staphylococcus aureus for `COc1ccc(/C=N/N=c2\scc(-c3cc(O)ccc3O)n2-c2ccccc2)cc1O`
Result: 16

====

# System: Bacillus subtilis
# assay.comment: Antibacterial activity against Bacillus subtilis ATCC 6633 assessed as growth inhibition after 24 hr by two fold serial dilution method
# Type: functional
# test.settings: ATCC 6633, 24 h
MIC: recorded values
Output spec: scalar in µg/mL, unitless text.

Reference set (4 entries):
[
  {
    "molecule": "COc1ccc(/C=N/N=c2\\scc(C3=CC(=O)C=CC3=O)n2-c2ccc(C)cc2)cc1",
    "assay.target": "Bacillus subtilis",
    "MIC / µg/mL": 50
  },
  {
    "molecule": "CC1(C)S[C@@H]2[C@H](NC(=O)[C@H](N)c3ccccc3)C(=O)N2[C@H]1C(=O)O.O.O.O [AMPICILLIN TRIHYDRATE]",
    "assay.target": "Bacillus subtilis",
    "MIC / µg/mL": 12.5
  },
  {
    "molecule": "COc1cc(/C=N/N=c2\\scc(C3=CC(=O)C=CC3=O)n2-c2ccccc2)ccc1O",
    "assay.target": "Bacillus subtilis",
    "MIC / µg/mL": 50
  },
  {
    "molecule": "COc1ccc(/C=N/N=c2\\scc(C3=CC(=O)C=CC3=O)n2-c2ccc(C)cc2)cc1O",
    "assay.target": "Bacillus subtilis",
    "MIC / µg/mL": 50
  }
]

Request: Output MIC of `COc1ccc(/C=N/N=c2\scc(-c3cc(O)ccc3O)n2-c2ccc(Cl)cc2)cc1`
Result: 50

Request: Quote MIC reported for `COc1ccc(/C=N/N=c2\scc(-c3cc(O)ccc3O)n2-c2ccccc2)cc1` please.
Result: 50

Request: Identify measured MIC associated with `COc1ccc(/C=N/N=c2\scc(-c3cc(O)ccc3O)n2-c2ccc(C)cc2)cc1O`
Result: 25

Request: Answer with the recorded MIC for the molecule listed here: `COc1cc(/C=N/N=c2\scc(C3=CC(=O)C=CC3=O)n2-c2ccc(C)cc2)ccc1O`
Result: 100
